- measurement-protocol: in vitro
- study-conditions: human, microsomes, pH 7.4
Where a SMILES comes first, the peptide text is derived from it. [ ]: non-standard residue; d: D form. ξ: configuration not given here. ξTic = O=C(O)C1Cc2ccccc2CN1; ξOic = O=C(O)C1CC2CCCCC2N1
measurement-type: remaining at 0.25 h, 1 μM (%)

{"columns": ["compound", "measurement-type", "data-value"],
 "data": [
  ["CC(C)NCC(O)COc1cccc2ccccc12 (centres unmarked) [Propranolol, propranolol, reference compound]", "remaining at 0.25 h, 1 μM", 97],
  ["CC(=O)NCC(=O)N1Cc2ccccc2CC1C(=O)N1C(C(=O)N[C@@H](CCCCN)C(=O)N2Cc3ccccc3CC2C(=O)N2C(C(=O)NCC(=O)N3Cc4ccccc4CC3C(=O)N3C(C(=O)N[C@@H](CCCCN)C(=O)N4Cc5ccccc5CC4C(=O)N[C@@H](CCCCN)C(=O)N[C@@H](CCCCN)C(=O)N[C@@H](CCCCN)C(=O)N[C@@H](CCCCN)C(N)=O)CC4CCCCC43)CC3CCCCC32)CC2CCCCC21 (some centres unmarked) [FKAB-1Ge] (Ac-G[ξTic][ξOic]K[ξTic][ξOic]G[ξTic][ξOic]K[ξTic]KKKK-NH2)", "remaining at 0.25 h, 1 μM", 114]
]}

###

# maps each entry to its remaining at 0.5 h, 1 μM
- measurement-protocol: in vitro
- study-conditions: dog, microsomes, pH 7.4
Where a SMILES comes first, the peptide text is derived from it. [ ]: non-standard residue; d: D form. ξ: configuration not given here. ξTic = O=C(O)C1Cc2ccccc2CN1; ξOic = O=C(O)C1CC2CCCCC2N1

{"columns": ["compound", "remaining at 0.5 h, 1 μM"],
 "data": [
  ["CC(=O)NCC(=O)N1Cc2ccccc2CC1C(=O)N1C(C(=O)N[C@@H](CCCCN)C(=O)N2Cc3ccccc3CC2C(=O)N2C(C(=O)NCC(=O)N3Cc4ccccc4CC3C(=O)N3C(C(=O)N[C@@H](CCCCN)C(=O)N4Cc5ccccc5CC4C(=O)N[C@@H](CCCCN)C(=O)N[C@@H](CCCCN)C(=O)N[C@@H](CCCCN)C(=O)N[C@@H](CCCCN)C(N)=O)CC4CCCCC43)CC3CCCCC32)CC2CCCCC21 (stereo partly drawn) [FKAB-1Ge] (Ac-G[ξTic][ξOic]K[ξTic][ξOic]G[ξTic][ξOic]K[ξTic]KKKK-NH2)", "43%"],
  ["CC(=O)CC(c1ccccc1)c1c(O)c2ccccc2oc1=O (stereo not drawn) [Warfarin, warfarin, reference compound]", "104%"],
  ["CC(C)NCC(O)COc1cccc2ccccc12 (stereo not drawn) [Propranolol, propranolol, reference compound]", "51%"]
]}

###

- measurement-protocol: in vitro
- study-conditions: dog, microsomes, pH 7.4

{"columns": ["molecule", "measurement-unit", "remaining at 0.25 h, 1 μM"],
 "data": [
  ["CC(C)NCC(O)COc1cccc2ccccc12 (centres unmarked) [Propranolol, propranolol, reference compound]", "%", 76],
  ["CC(=O)CC(c1ccccc1)c1c(O)c2ccccc2oc1=O (centres unmarked) [Warfarin, warfarin, reference compound]", "%", 109]
]}

###

- measurement-protocol: in vitro
- study-conditions: dog, microsomes, pH 7.4
Where a SMILES comes first, the peptide text is derived from it. [ ]: non-standard residue; d: D form. ξ: configuration not given here. ξTic = O=C(O)C1Cc2ccccc2CN1; ξOic = O=C(O)C1CC2CCCCC2N1

{"columns": ["compound", "remaining at 0.5 h, 1 μM"],
 "data": [
  ["CC(=O)N[C@@H](Cc1ccccc1)C(=O)N1Cc2ccccc2CC1C(=O)N1C(C(=O)N[C@@H](CCCCN)C(=O)N2Cc3ccccc3CC2C(=O)N2C(C(=O)N[C@@H](Cc3ccccc3)C(=O)N3Cc4ccccc4CC3C(=O)N3C(C(=O)N[C@@H](CCCCN)C(=O)N4Cc5ccccc5CC4C(=O)N[C@@H](CCCCN)C(=O)N[C@@H](CCCCN)C(=O)N[C@@H](CCCCN)C(=O)N[C@@H](CCCCN)C(N)=O)CC4CCCCC43)CC3CCCCC32)CC2CCCCC21 (stereo partly shown) [FKAB-1Gc] (Ac-F[ξTic][ξOic]K[ξTic][ξOic]F[ξTic][ξOic]K[ξTic]KKKK-NH2)", "14%"]
]}

Cited source for all entries: patent US20120197004A1
